# System: SW1573 (Lung Adenocarcinoma)
# Method Description: combination Emax (second highest fraction inhibited in the dose matrix, 72 h); higher = more inhibition; extreme values may be limits of the assay
Values of combination Emax greater than or equal to 0.4 map to Criterion met; values below map to Criterion not met.

| Molecule | Category Label |
| --- | --- |
| Cn1cnc2c(F)c(Nc3ccc(Br)cc3Cl)c(C(=O)NOCCO)cc21 [Selumetinib] + C=CCn1c(=O)c2cnc(Nc3ccc(N4CCN(C)CC4)cc3)nc2n1-c1cccc(C(C)(C)O)n1 [AZD1775] (first compound max 10 µM, partner max 1 µM) | Criterion not met |
| COc1nnc2ccc(N3CCC(c4ccc(OCCN5CCN(C)C(=O)[C@H]5C)cc4)CC3)nn12 [AZD5153] + CCN(CCO)CCCOc1ccc2c(Nc3cc(CC(=O)Nc4cccc(F)c4)[nH]n3)ncnc2c1 [AZD2811] (first compound max 1 µM, 7x7, partner max 1 µM) | Criterion met |
| Cc1cc2ncnn2cc1Nc1ncc2c(n1)n(C1CCOCC1)c(=O)n2C [AZD7648] + C[C@@H]1COCCN1C2=NC(=NC(=C2)C3(CC3)[S@](=N)(=O)C)C4=C5C=CNC5=NC=C4 [AZD6738] (first compound max 10 µM, 7x7, partner max 10 µM) | Criterion not met |
| Cc1c2c(nn1C)CSCc1cc(n(C)n1)CSc1cc(c3ccccc3c1)OCCCc1c(C(=O)O)n(C)c3c-2c(Cl)ccc13 [AZD5991] + CCN(CCO)CCCOc1ccc2c(Nc3cc(CC(=O)Nc4cccc(F)c4)[nH]n3)ncnc2c1 [AZD2811] (first compound max 1 µM, 7x7, partner max 1 µM) | Criterion not met |
| CC1(C)CCC(CN2CCN(c3ccc(C(=O)NS(=O)(=O)c4ccc(NCC5CCOCC5)c([N+](=O)[O-])c4)c(Oc4cnc5[nH]ccc5c4)c3)CC2)=C(c2ccc(Cl)cc2)C1 [Venetoclax] + Cc1cc2ncnn2cc1Nc1ncc2c(n1)n(C1CCOCC1)c(=O)n2C [AZD7648] (first compound max 1 µM, 7x7, partner max 10 µM) | Criterion not met |
| CN(CCO)CC[C@H](CSc1ccccc1)Nc1ccc(S(=O)(=O)NC(=O)c2ccc(N3CCC([C@@H](O)c4ccccc4-c4ccc(Cl)cc4)CC3)cc2)cc1S(=O)(=O)C(F)(F)F [AZD4320] + CCN(CCO)CCCOc1ccc2c(Nc3cc(CC(=O)Nc4cccc(F)c4)[nH]n3)ncnc2c1 [AZD2811] (first compound max 1 µM, 7x7, partner max 1 µM) | Criterion met |
